Tested on: HEK-293T
PROCEDURE SUMMARY: Multiplex assay against HEK293T
Type: toxicity, cell-based
PROTOCOL CONDITIONS: human, 24 h, 10 µM, compound concentration 10 uM, replicate 1
Each entry gets F if its Population Mitochondria Different-Phenotype (%) stays under 70%, and T if its Population Mitochondria Different-Phenotype (%) is 70% or above.

[
  {
    "TEST SMILES": "CCOc1ccn(-c2ccc(F)cc2)c(=O)c1C(=O)Nc1ccc(Oc2ccnc(N)c2Cl)c(F)c1",
    "TGT": "HEK-293T",
    "ANSWER LABEL": "F"
  },
  {
    "TEST SMILES": "CC[C@H](Nc1ncnc2[nH]cnc12)c1nc2cccc(F)c2c(=O)n1-c1ccccc1",
    "TGT": "HEK-293T",
    "ANSWER LABEL": "F"
  },
  {
    "TEST SMILES": "CC(C)[C@H](CO)Nc1nc(Nc2cccc(Cl)c2)c2ncn(C(C)C)c2n1",
    "TGT": "HEK-293T",
    "ANSWER LABEL": "T"
  },
  {
    "TEST SMILES": "N#Cc1cccc(C(=O)Nc2cc(-c3ccccc3)nn2-c2ccccc2)c1",
    "TGT": "HEK-293T",
    "ANSWER LABEL": "T"
  },
  {
    "TEST SMILES": "CC[C@@]1(O)C(=O)OCc2c1cc1n(c2=O)Cc2cc3ccccc3nc2-1",
    "TGT": "HEK-293T",
    "ANSWER LABEL": "F"
  },
  {
    "TEST SMILES": "C[C@@H](Oc1cc(-n2cnc3ccc(CN4CCN(C)CC4)cc32)sc1C(N)=O)c1ccccc1C(F)(F)F",
    "TGT": "HEK-293T",
    "ANSWER LABEL": "T"
  },
  {
    "TEST SMILES": "CN(c1cc(C(F)(F)F)nc(OCCC(=O)O)n1)c1cccc2c1CCC2",
    "TGT": "HEK-293T",
    "ANSWER LABEL": "F"
  },
  {
    "TEST SMILES": "Oc1cccc(-c2nc(N3CCOCC3)c3oc4ncccc4c3n2)c1",
    "TGT": "HEK-293T",
    "ANSWER LABEL": "T"
  }
]
